- Tested on: NCI-H146 cells
- assay.comment: Inhibition of proliferation of NCI-H146 cells (CellTiter-Glo)
- Type: cell-based
- details: Homo sapiens, 72 h, 3 days, read-out: Inhibitory activity IC50 (nM) for the proliferation of NCI-H146 cells
As shown below, each of these molecules has a reported IC50 value.
State the value, then name its unit.

Some molecules with recorded IC50:
{"molecule": "O=C(NS(=O)(=O)c1ccc(N[C@@H](CSc2ccccc2)C[C@H]2CCCN2)c(S(=O)(=O)C(F)(F)F)c1)c1ccc(N2CCC([C@@H](O)c3ccccc3-c3ccc(Cl)cc3)CC2)cc1 [Example 2-1]", "study.target": "NCI-H146 cells", "IC50": "36 nM"}
{"molecule": "O=C(NS(=O)(=O)c1ccc(N[C@@H](CSc2ccccc2)C[C@@H]2CCCN2CCCO)c(S(=O)(=O)C(F)(F)F)c1)c1ccc(N2CCC([C@@H](O)c3ccccc3-c3ccc(Cl)cc3)CC2)cc1 [Example 2-11]", "study.target": "NCI-H146 cells", "IC50": "16 nM"}
{"molecule": "CO[C@@H](c1ccccc1-c1ccc(Cl)cc1)C1CCN(c2ccc(C(=O)NS(=O)(=O)c3ccc(N[C@@H](CSc4ccccc4)C[C@H]4CCCN4)c(S(=O)(=O)C(F)(F)F)c3)cc2)CC1 [Example 2-3]", "study.target": "NCI-H146 cells", "IC50": "74 nM"}

Next molecule, please.
Task: Returns the measured IC50 for the input molecule. Input: CO[C@@H](c1ccccc1-c1ccc(Cl)cc1)C1CCN(c2ccc(C(=O)NS(=O)(=O)c3ccc(N[C@@H](CSc4ccccc4)C[C@H]4CCCN4CCO)c(S(=O)(=O)C(F)(F)F)c3)cc2)CC1 [Example 2-4]
Result: 94 nM
